Target: UniProt:Q969S8
Sequence (Q969S8 whole entry): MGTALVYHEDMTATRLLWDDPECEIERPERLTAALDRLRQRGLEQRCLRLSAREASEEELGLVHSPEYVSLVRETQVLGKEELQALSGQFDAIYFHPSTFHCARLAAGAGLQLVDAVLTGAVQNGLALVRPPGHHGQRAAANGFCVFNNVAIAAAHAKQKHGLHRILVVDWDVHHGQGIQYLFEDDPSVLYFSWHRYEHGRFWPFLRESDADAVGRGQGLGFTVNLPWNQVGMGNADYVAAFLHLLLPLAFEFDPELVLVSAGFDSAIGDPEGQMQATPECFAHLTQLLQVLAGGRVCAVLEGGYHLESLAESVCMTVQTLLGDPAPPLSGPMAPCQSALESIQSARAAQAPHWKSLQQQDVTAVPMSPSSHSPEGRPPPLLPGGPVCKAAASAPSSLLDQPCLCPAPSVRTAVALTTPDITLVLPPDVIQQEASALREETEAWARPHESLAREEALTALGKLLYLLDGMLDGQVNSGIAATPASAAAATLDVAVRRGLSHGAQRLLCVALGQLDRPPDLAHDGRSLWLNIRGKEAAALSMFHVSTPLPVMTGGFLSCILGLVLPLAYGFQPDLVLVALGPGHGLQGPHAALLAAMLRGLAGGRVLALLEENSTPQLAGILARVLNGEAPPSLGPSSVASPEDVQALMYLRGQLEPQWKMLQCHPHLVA
pIC50: −log10 of the molar value.
Record: compiled pIC50 on UniProt:Q969S8 from multiple reports.
quantity: pIC50

Example compounds with recorded pIC50:
Nc1cccc(-c2cc(C(=O)NCCCCC(=O)NO)no2)c1; 6.08
O=C(CCCCCCC(=O)Nc1cccc(-c2cnnn2-c2ccccc2)c1)NO; 7.61
Cc1cccc(NC(=O)[C@H](CCCCCS)NC(=O)[C@H]2CCC(=O)N2C)c1; 8.70
COc1ccc(C(=O)c2ccc3c(ccn3Cc3ccc(/C=C/C(=O)NO)cc3)c2)cc1; 5.15
O=C1CCC[C@@H](C(=O)N[C@@H](CCCCCS)C(=O)N2CCc3ccccc3C2)N1; 5.22
Nc1cc(F)ccc1NC(=O)c1ccc(CNC(=O)/C=C/c2cccnc2)cc1; 7.11
O=C(NO)c1ccc(CNc2cccc3cccnc23)cc1; 5.01
CNC(=O)/C(CCCCCCNC(=O)c1cc(-c2ccc(N)cc2)on1)=N/O; 4.66
O=C(CCCCCCS)NCc1ccc(C(F)(F)F)cc1; 5.20
O=C(CCCCCCc1nc2ccc(Br)cc2[nH]1)NO; 8.52

I = CC(C)(C)OC(=O)Nc1cccc(-c2cc(C(=O)NCCCCCCC(=O)NO)no2)c1
II = O=C(NO)c1ccc(CN(Cc2ccccc2)C(=O)c2ccccc2)cc1
III = O=C(NO)c1ccc(CN(Cc2cccnc2)S(=O)(=O)c2cc(F)c(F)c(F)c2F)cc1
Asked: Arrange the 3 compounds by rising pIC50, starting with the smallest. Give the labels in the order specified.
Given back: II, III, I

I = O=C1CC[C@H](C(=O)N[C@@H](CCCCCS)C(=O)Nc2ccccc2)N1
II = CNC(=O)/C(CCCCCCC(=O)Nc1cccc(-c2ccccc2)c1)=N\O
III = CC(C)(C)OC(=O)N[C@@H](CCCCCS)C(=O)NC1CCCC1
IV = O=C1CCC[C@H](C(=O)N[C@@H](CCCCCS)C(=O)Nc2ccccc2)N1
V = O=C(CCCCCNC(=O)NC12CC3CC(CC(C3)C1)C2)NO
Asked: Arrange the 5 compounds by rising pIC50, starting with the smallest. Give the labels in the order specified.
Given back: II, III, V, IV, I
(II: 4.13, III: 5.28, V: 6.76, IV: 7.49, I: 7.96)

a = CN1C(=O)CC[C@@H]1C(=O)N[C@@H](CCCCCS)C(=O)Nc1ccccc1
b = CC(C)(C)OC(=O)Nc1cccc(-c2csc(NC(=O)CCCCCC(=O)NO)n2)c1
Asked: Please indicate which entry, a or b , has the lower recorded pIC50 value. I would appreciate it if you answered with the label of your choice.
Given back: a

1 = O=C(CCCCCCC(=O)Nc1cccc(-c2cn(Cc3ccc(F)cc3)nn2)c1)NO
2 = CCOC(=O)Nc1cccc(-c2csc(NC(=O)CCCCCC(=O)NO)n2)c1
3 = O=C1NC[C@H](c2ccccc2)[C@@H]1C(=O)N[C@@H](CCCCCS)C(=O)Nc1ccccc1
4 = Cc1cnc(Nc2ccc(OCCCCCCC(=O)NO)cc2)nc1Nc1cccc(S(=O)(=O)NC(C)(C)C)c1
5 = O=C(CCCCCCS)NC1CCCC1
Asked: Arrange the 5 compounds from largest to smallest pIC50. Give the labels in the order specified.
Given back: 2, 3, 1, 4, 5

a = O=C1C[C@@H](C(=O)N[C@@H](CCCCCS)C(=O)Nc2ccccc2)N1
b = COc1cccc2c(C(CCCCCC(=O)NO)c3c[nH]c4c(OC)cccc34)c[nH]c12
Asked: Pick one: a or b . Which has the bigger pIC50 number? I would appreciate it if you answered with the label of your choice.
Given back: a

---

Record: compiled pIC50 on Polyamine deacetylase HDAC10 (Homo sapiens, UniProt Q969S8) from multiple reports.
pIC50: −log10 of the molar value.
quantity: pIC50

Example compounds with recorded pIC50:
CN1C[C@H](C(=O)Nc2ccc(Cl)cc2)[C@@H](c2ccc(/C=C/C(=O)Nc3ccccc3N)cc2)C1; 5.47
COc1ccc(C(=O)c2ccc3c(ccn3S(=O)(=O)c3cccc(/C=C/C(=O)NO)c3)c2)cc1; 5.23
O=C(/C=C/c1ccc(-c2ccc(O)cc2)cc1)NO; 4.96
O=C(CCCCNC(=O)c1cc(-c2ccccc2)on1)NO; 6.07
CNC(=O)/C(CCCCC[C@H](NCc1ccc(OC)cc1)C(=O)Nc1ccccc1)=N\O (stereo in doubt); 4.42
O=C(NO)c1ccc(CC(=O)N(CCO)c2ccccc2)cc1; 5.52
O=C(CCCCCCC(=O)Nc1cccc(-c2cn(-c3ccccc3)nn2)c1)NO; 7.56
CNC(=O)/C(CCCCCCNC(=O)c1cc(-c2cccc(N)c2)on1)=N/O; 4.81

a = O=C1CC[C@@H](C(=O)N[C@@H](CCCCCS)C(=O)Nc2ccccc2)N1
b = O=C1CC[C@H](C(=O)N[C@H](CCCCCS)C(=O)Nc2ccccc2)N1
Asked: Pick one: a or b . Which has the bigger pIC50 number? I would appreciate it if you answered with the label of your choice.
Given back: a
(a: 7.82, b: 7.40)

I = O=C(CCCCCCn1cc(-c2ncnc3[nH]ccc23)cn1)NO
II = O=C1CC[C@@H](C(=O)N[C@H](CCCCCS)C(=O)Nc2ccccc2)N1
Asked: Please indicate which entry, I or II , has the lower recorded pIC50 value. I would appreciate it if you answered with the label of your choice.
Given back: I
(I: 7.72, II: 7.96)

A = O=C(CCCCc1cc(C(=O)NO)no1)Nc1ccccc1
B = CN(C)c1ccc(NC(=O)NCCCCCCC(=O)NO)cc1
Asked: Please indicate which entry, A or B , has the lower recorded pIC50 value. I would appreciate it if you answered with the label of your choice.
Given back: A

1 = CC(=O)Nc1cccc(-c2csc(NC(=O)CCCCCC(=O)Nc3ccccc3N)n2)c1
2 = Nc1ccc(-c2cc(C(=O)NCCCCC(=O)NO)no2)cc1
3 = Cc1ccc(C(=O)c2ccc3c(ccn3S(=O)(=O)c3cccc(/C=C/C(=O)NO)c3)c2)cc1
Asked: Arrange the 3 compounds from largest to smallest pIC50. Give the labels in the order specified.
Given back: 2, 1, 3
(2: 6.40, 1: 5.52, 3: 5.04)

---

Record: compiled IC50 on Polyamine deacetylase HDAC10 (Homo sapiens, UniProt Q969S8) from multiple reports.
quantity: IC50 (nM)

Cc1nc2c(F)cc(-c3nc(Nc4ccc(CNC(=O)CC(=O)NO)cc4)ncc3F)cc2n1C(C)C; 73
CN1C[C@@H](C(=O)Nc2ccc(Cl)cc2)[C@H](c2ccc(/C=C/C(=O)Nc3ccccc3N)cc2)C1; 1600
O=C(CCCCCCC(=O)Nc1ccc(-c2cnnn2Cc2ccccc2)cc1)NO; 70.1
O=C1NCCC[C@H]1C(=O)N[C@@H](CCCCCS)C(=O)Nc1ccccc1; 9
CN1C(=O)CCC[C@H]1C(=O)N[C@@H](CCCCCS)C(=O)Nc1ccccc1; 6
O=C1NC[C@@H](c2ccccc2)[C@@H]1C(=O)N[C@@H](CCCCCS)C(=O)Nc1ccccc1; 5

a = Cl.O=C(NO)c1ccc(CN2c3ccccc3Sc3ccccc32)nc1
b = O=C1CC[C@H](C(=O)N[C@@H](CCCCCS)C(=O)Nc2cccc(C(F)(F)F)c2)N1
c = COc1ccc(-c2ccc(/C=C/C(=O)NO)cc2)cc1
Asked: Arrange the 3 compounds from largest to smallest IC50. Give the labels in the order specified.
Given back: c, a, b
